test system: CAL-148; assay: normalised viability (% of control), CellTiter-Blue; higher = more viable cells (about 100 = DMSO control); conditions: incubation time: 72 h
Quantity measured: normalised viability

What value of measured normalised viability is listed for Clc1ccc(Nc2nnc(Cc3ccncc3)c3ccccc23)cc1 [Vatalanib] (300 nM) ?
88.5%

Continue with CNCc1ccc(-c2[nH]c3cc(F)cc4c3c2CCNC4=O)cc1 [Rucaparib] (300 nM)
91.7%

Continue with CC(C)Cn1cnc2c(N)nc3ccccc3c21 [Imiquimod] (300 nM)
96.5%

Continue with Cc1ccc(-n2nc(C(C)(C)C)cc2NC(=O)Nc2ccc(OCCN3CCOCC3)c3ccccc23)cc1 [Doramapimod] (300 nM)
91.3%

---

test system: MDA-MB-436; assay: normalised viability (% of control), CellTiter-Blue; higher = more viable cells (100 = DMSO, 0 = benzethonium chloride kill control); conditions: incubation time: 72 h
Quantity measured: normalised viability (%)
Give your result in % as a bare value.

API: value(readout=normalised viability, system=MDA-MB-436) for record CN(C)/N=N/c1[nH]cnc1C(N)=O [Dacarbazine] (1 nM)
114

Continue with Cn1c(Nc2ccc(C(F)(F)F)cc2)nc2cc(Oc3ccnc(-c4ncc(C(F)(F)F)[nH]4)c3)ccc21 [RAF265] (0.1 nM)
104

Continue with CCC1(c2ccc(N)cc2)CCC(=O)NC1=O (stereo not given) [Aminoglutethimide] (1 nM)
98.2

Continue with NC(=O)Nc1cc(-c2cccc(F)c2)sc1C(=O)N[C@H]1CCCNC1 [AZD 7762] (0.1 nM)
115

Continue with Clc1ccc(Nc2nnc(Cc3ccncc3)c3ccccc23)cc1 [Vatalanib] (1 nM)
125

Continue with O=C1CCC(N2C(=O)c3ccccc3C2=O)C(=O)N1 (stereo not given) [Thalidomide] (1 nM)
97

Continue with C[C@]12CC[C@@H]3c4ccc(O)cc4C[C@@H](CCCCCCCCC[S+]([O-])CCCC(F)(F)C(F)(F)F)[C@H]3[C@@H]1CC[C@@H]2O (stereo not given in full) [Fulvestrant] (1 nM)
106

Continue with Cc1ccc(C(=O)N(CCCN)[C@@H](c2oc3cc(Cl)ccc3c(=O)c2Cc2ccccc2)C(C)C)cc1 (0.1 nM)
111

Continue with Oc1nc(-c2ccc(C(F)(F)F)cc2)nc2c1CSCC2 [XAV-939] (1 nM)
119

Continue with Cc1ccc(-n2nc(C(C)(C)C)cc2NC(=O)Nc2ccc(OCCN3CCOCC3)c3ccccc23)cc1 [Doramapimod] (1 nM)
92.2

---

So I've got a bunch of compounds here, and I need their normalised viability values.
system: CAL-85-1; experiment: normalised viability (% of control), CellTiter-Blue; higher = more viable cells (about 100 = DMSO control); conditions: 10 nM; incubation time: 72 h

What value of measured normalised viability is listed for COc1cc([C@@H]2c3cc4c(cc3[C@@H](O[C@@H]3O[C@@H]5CO[C@@H](C)O[C@H]5[C@H](O)[C@H]3O)[C@H]3COC(=O)[C@H]23)OCO4)cc(OC)c1O [Etoposide] ?
101%

Continue with O=P1(NCCCl)OCCCN1CCCl (stereo not drawn) [Ifosfamide]
95.5%

Continue with CN(N=O)C(=O)N[C@@H](C=O)[C@@H](O)[C@H](O)[C@H](O)CO
105%
